Reported Potency by item:
assay: InCell qHTS Assay for Inhibitors of the mTORC1 Signaling Pathway in MEF (Tsc2-/-, p53-/-) Cells: Hit Validation; details: phospho-rpS6 immunofluorescence, 24 h;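 also: phospho-S6 Ser235/236 signal normalized to propidium iodide cell count per well; nearly all actives have a fitted effect of over 75% in size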; also: potency is read from the fitted curve at half-maximal effect
Results filed as inconclusive are left out. The source made the active and inactive calls. Calls follow the shape of the dose curve; as a rule, active = well fitted inhibition curve with a large enough effect; inconclusive = small, poorly fitted or top-dose-only effect; inactive = no such curve, though single readings can be large or run the other way.

// worked examples, Potency included
| Molecule | Potency |
| --- | --- |
| Cc1cccc(NC(=O)c2nc(S(C)(=O)=O)ncc2Cl)c1 | 5.21 µM (active) |
| Cc1cccc(-n2nnnc2S(C)(=O)=O)c1 | 3.29 µM (active) |
| Cc1cccc(CS(=O)(=O)c2ncc(Cl)c(C(=O)NCc3ccccc3)n2)c1 | 10.4 µM (active) |
| CCCS(=O)(=O)c1ncc(Cl)c(C(=O)Nc2c(C(=O)Nc3ccccc3)oc3ccccc23)n1 | 2.33 µM (active) |
| CCC(C)S(=O)(=O)c1oc(-c2cccs2)nc1S(=O)(=O)c1ccccc1 (stereo unspecified) | 1.17 µM (active) |

Consider now this further molecule.
Problem: Please report the recorded Potency for `Cc1ccc(CS(=O)(=O)c2ncc(Cl)c(C(=O)Nc3nnc(C(C)C)s3)n2)cc1` .
Solution: 6.56 µM (active)

----------
Reported Potency by item:
experiment: InCell qHTS Assay for Inhibitors of the mTORC1 Signaling Pathway in MEF (Tsc2-/-, p53-/-) Cells: Hit Validation; conditions: phospho-rpS6 immunofluorescence, 24 h;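 also: phospho-S6 Ser235/236 signal normalized to propidium iodide cell count per well; nearly all actives have a fitted effect of over 75% in size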; also: potency is read from the fitted curve at half-maximal effect
Inconclusive results are not listed. Activity calls are given as the source filed them. Calls follow the shape of the dose curve; as a rule, active = well fitted inhibition curve with a large enough effect; inconclusive = small, poorly fitted or top-dose-only effect; inactive = no such curve, though single readings can be large or run the other way.

| Molecule | Potency |
| --- | --- |
| CCOC(=O)c1ccc(NC(=O)c2nc(S(=O)(=O)Cc3ccccc3)ncc2Cl)cc1 | 4.14 µM (active) |
| CC(C)CS(=O)(=O)c1oc(-c2ccc(F)cc2)nc1S(=O)(=O)c1ccccc1 | 3.29 µM (active) |
| CCn1c(=N)n(CCOc2ccc(Br)cc2)c2ccccc21 | 14.7 µM (active) |
| CCS(=O)(=O)c1ncc(Cl)c(C(=O)N(Cc2ccccc2)c2ccc(OC)cc2)n1 | 2.93 µM (active) |
| CCOc1ccc(N(Cc2ccccc2)C(=O)c2nc(S(C)(=O)=O)ncc2Cl)cc1 | 2.93 µM (active) |
| CC(=O)C1=C(c2ccc(Cl)c(Cl)c2)N(C(C)=O)n2c(C)nnc2S1 | 7.36 µM (active) |

Consider now this further molecule.
Problem: Please report the recorded Potency for `Cc1cc(C)c(NC(=O)Cn2c(=O)n(Cc3ccc(C(=O)NCc4ccc5c(c4)OCO5)cc3)c(=O)c3ccccc32)c(C)c1` .
Solution: 3.29 µM (active)

----------
Reported activity change, negative = inhibition by item:
experiment: InCell qHTS Assay for Inhibitors of the mTORC1 Signaling Pathway in MEF (Tsc2-/-, p53-/-) Cells: Hit Validation; details: phospho-rpS6 immunofluorescence, 24 h; at 38.3 µM (top of the series);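 also: phospho-S6 Ser235/236 signal normalized to propidium iodide cell count per well; nearly all actives have a fitted effect of over 75% in size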
Records with an inconclusive call do not appear.
Output spec: scalar in %, unitless text.

// worked examples, activity change, negative = inhibition included
| Compound | Assay readout | Measured result |
| --- | --- | --- |
| CC(CNC(=O)c1ccc(Nc2nc3ccccc3n3nnnc23)cc1)c1ccccc1 (centres undefined) | activity change, negative = inhibition | -100 |
| CC(C)Oc1ccc(CNC(=O)c2ccc3nc(SCc4ccc(F)cc4)n(C)c3c2)cc1 | activity change, negative = inhibition | -100 |
| Cc1cc(C)cc(NC(=O)c2cnn(-c3ccc(C)c(C)c3)c2C2CCNCC2)c1 | activity change, negative = inhibition | -19.5 |

Problem: Please report the recorded activity change, negative = inhibition for `COc1ccc(CCNC(=O)c2ccc3c(c2)N(Cc2ccccc2)CCS3)cc1OC` .
Solution: -100

Problem: Please report the recorded activity change, negative = inhibition for `O=C(C1CCN(c2nc3ccccc3[nH]2)CC1)N1CCN(c2cccc(Cl)c2)CC1` .
Solution: -100

Problem: Please report the recorded activity change, negative = inhibition for CC(C)(C)C1CCc2c(sc(NC(=O)C3c4ccccc4Oc4ccccc43)c2C(N)=O)C1 (centres undefined) .
Solution: -100

Problem: Please report the recorded activity change, negative = inhibition for `CCOc1ccc(C(=O)NCCc2sc(-c3ccc(C)cc3)nc2C)cc1` .
Solution: -100

Problem: Please report the recorded activity change, negative = inhibition for `Cc1ccc(C)c(CN2C(=O)C(=O)c3ccccc32)c1` .
Solution: -100

Problem: Please report the recorded activity change, negative = inhibition for `O=C(Nc1cccc(NC(=O)c2ccccc2Cl)c1)c1cccc(Br)c1` .
Solution: -100

Problem: Please report the recorded activity change, negative = inhibition for `CC(C)(C)c1ccc(C(=O)Nc2nnc3n2CCS3)cc1` .
Solution: -100

Problem: Please report the recorded activity change, negative = inhibition for `COc1ccc(Oc2nc3c(C)cccn3c(=O)c2/C=C(\C#N)c2nc3ccccc3[nH]2)cc1` .
Solution: -100

Problem: Please report the recorded activity change, negative = inhibition for `COc1ccccc1-c1noc(CSc2nc3ccc(C)cc3[nH]2)n1` .
Solution: -100

Problem: Please report the recorded activity change, negative = inhibition for `CCN1CCC(N(Cc2ccc(F)cc2)C(=O)Nc2ccc(C)c(F)c2)CC1` .
Solution: -100

Problem: Please report the recorded activity change, negative = inhibition for `COc1ccccc1N1CCN(C(=O)c2cnc(N3CCCCC3)c3ccccc23)CC1` .
Solution: -100

Problem: Please report the recorded activity change, negative = inhibition for COc1cc(Cl)c(C)cc1NC(c1ccccc1)c1nnc(-c2ccccc2Cl)o1 (centres undefined) .
Solution: -100

Problem: Please report the recorded activity change, negative = inhibition for CCOC(=O)c1ccc(N2C(=O)c3n[nH]c(C)c3C2c2cccc(Br)c2)cc1 (centres undefined) .
Solution: -100

Problem: Please report the recorded activity change, negative = inhibition for `CC(C)Cc1ccc(S(=O)(=O)N2CCC(c3ccncc3)CC2)cc1` .
Solution: -100

Problem: Please report the recorded activity change, negative = inhibition for `CCOc1ccc(S(=O)(=O)NCCc2sc(-c3ccc(C)cc3)nc2C)cc1` .
Solution: -100

Problem: Please report the recorded activity change, negative = inhibition for CCCN1C(=O)C(O)(CC(=O)c2ccc(C(C)C)cc2)c2ccccc21 (centres undefined) .
Solution: -100

Problem: Please report the recorded activity change, negative = inhibition for `CCN(CCCNC(=O)c1cc2c(=O)[nH]c3ccccc3c2s1)c1ccccc1` .
Solution: -100

Problem: Please report the recorded activity change, negative = inhibition for Cc1c(C(=O)OC2CCCCC2)[nH]c2c1C(=O)CC(c1ccccc1)C2 (centres undefined) .
Solution: -24.8

Problem: Please report the recorded activity change, negative = inhibition for CCOc1cc(C2CC(=O)Nc3cc4c(cc32)OCCO4)ccc1O (centres undefined) .
Solution: -100

Problem: Please report the recorded activity change, negative = inhibition for `COc1ccc(OCc2nc3c4c(-c5ccccc5)c(-c5ccccc5)oc4ncn3n2)cc1` .
Solution: -100

Problem: Please report the recorded activity change, negative = inhibition for `CCOC(=O)C1CCN(c2cc3c(cc2NC(=O)c2ccccc2Cl)n(C)c(=O)n3C)CC1` .
Solution: -12.8

Numbers sourced from PubChem BioAssay AID651791.
